All values here come from patent US20230012368A1.

# System: Acinetobacter baumannii ATCC 17978
# protocol_text: Antimicrobial susceptibility testing: 90% growth inhibitory concentration (IC90) determination
# Format: cell-based
# experimental_parameters: Acinetobacter baumannii, ATCC17978, 16 h, 90% growth inhibitory concentration; Acinetobacter baumannii ATCC17978; Iso-Sensitest broth, OD 600 nm over 16h; read-out: ATCC17978 IC90
Counter-ions that a name gives are not always drawn.
Listing of recorded IC90 by entry.
# value in nM; strip the unit string

COc1ccc(-c2cnc3c(Nc4ccc(C(=O)N[C@H](C)CNC(C)=N)c(Cl)c4)nccn23)c(F)c1F [Example 501]: 69
CCc1cc(Nc2nccn3c(-c4ccc(OC)c(F)c4F)cnc23)ccc1C(=O)N[C@@H](C)CN [Example 102, dihydrochloride]: 320
COc1ccc(-c2cnc3c(Nc4ccc(C(=O)NCC5OCC(N)CO5)c(C)c4)nccn23)cc1 (stereo not shown) [Example 206]: 540

**Q:** Form field: reported IC90 of Cc1cc(Nc2nccn3c(-c4ccc(OCC#N)c(F)c4F)cnc23)ccc1C(=O)NC[C@H](N)CNC(=O)[C@@H]1C[C@@H](O)CN1 [Example 470, formic acid]
**A:** 600

* * *

# System: Acinetobacter baumannii ATCC 17978
# protocol_text: Antimicrobial susceptibility testing: 90% growth inhibitory concentration (IC90) determination
# Type: cell-based
# experimental_parameters: Acinetobacter baumannii, ATCC17978, 16 h, 90% growth inhibitory concentration; Acinetobacter baumannii ATCC17978; Iso-Sensitest broth, OD 600 nm over 16h; read-out: ATCC17978 IC90
Listing of recorded IC90 by entry.
# value in µM; strip the unit string

**Q:** Form field: reported IC90 of `Cc1cc(Nc2nccn3c(-c4ccc(OC(F)F)cc4)cnc23)ccc1C(=O)N[C@@H](C)CN`
**A:** 7.1

**Q:** Again, but for `Cc1cc(Nc2nccn3c(-c4ccc(OC(F)F)cc4)cnc23)ccc1C(=O)N(C)CCN1CCOC(C)(C)C1`
**A:** 2.2

**Q:** Again, but for `CCc1cc(Nc2nccn3c(-c4ccc(OC)c(F)c4F)cnc23)ccc1C(=O)NCC1CCN(C(=N)N)CC1`
**A:** 0.17

**Q:** Again, but for `CCc1cc(Nc2nccn3c(-c4ccc(OC)c(F)c4F)cnc23)ccc1C(=O)N[C@H](C)CNC(=O)[C@@H](N)CCCNC(=N)N`
**A:** 0.3

**Q:** Again, but for `CCc1cc(Nc2nccn3c(-c4ccc(OC)c(F)c4F)cnc23)ccc1C(=O)NCC(=O)NCCN(C)C`
**A:** 0.25

**Q:** Again, but for CCc1cc(Nc2nccn3c(-c4ccc(OC)c(F)c4F)cnc23)ccc1C(=O)NCC(O)CN (stereo not shown)
**A:** 0.35

**Q:** Again, but for `CCc1cc(Nc2nccn3c(-c4ccc(Oc5nccc(OC)n5)c(F)c4F)cnc23)ccc1C(=O)N[C@@H](C)CN`
**A:** 0.52

* * *

# Test system: Acinetobacter baumannii ATCC 17978
# protocol_text: Antimicrobial susceptibility testing: 90% growth inhibitory concentration (IC90) determination
# Type: cell-based
# experimental_parameters: Acinetobacter baumannii, ATCC17978, 16 h, 90% growth inhibitory concentration; Acinetobacter baumannii ATCC17978; Iso-Sensitest broth, OD 600 nm over 16h; read-out: ATCC17978 IC90
Lab note - cut at 200 nM for IC90: Yes if strictly below, No if not.

**Q:** Lab note: IC90 threshold 200 nM. Does this molecule come in strictly under it? CCc1cc(Nc2nccn3c(-c4ccc(OC(F)F)c(F)c4F)cnc23)ccc1C(=O)N[C@@H](C)CNC(=O)C1CCNCC1 (racemic)
**A:** No

**Q:** Again, but for `CCc1cc(Nc2nccn3c(-c4ccc(OCC#N)c(F)c4F)cnc23)ccc1C(=O)NCCCN`
**A:** Yes

**Q:** Again, but for `COc1ccc(-c2cnc3c(Nc4ccc(C(=O)NCC5CCN(C)CC5)c(C)c4)nccn23)c(F)c1F`
**A:** No
